Measured values drawn from paper PMC11012124 for this set.

Tested on: A498
EXPERIMENT_NOTES: cells
STATED_CONDITIONS: Homo sapiens, A498, 48 h, read-out: LC50
ASSAY_METRIC: CC50 (µM)

>>> value("CN(C)c1nc(NCCNS(=O)(=O)c2ccc(C(=O)/C=C/c3ccc(Cl)cc3)cc2)nc(Nc2ccc(F)cc2)n1 [24e]")
23.1
>>> value("COc1cc(/C=C/C(=O)c2ccc(S(=O)(=O)NCCNc3nc(N(C)C)nc(N4CCOCC4)n3)cc2)cc(OC)c1OC [23d]")
52.6
>>> value("Nc1nc(N)c2c(n1)NC(c1ccc(C(F)(F)F)cc1)CC(c1ccc(Nc3nc(NCCO)nc(Nc4ccc(Cl)cc4)n3)cc1)=N2 (stereo not shown) [33g]")
5.4
>>> value("COc1cc(/C=C/C(=O)c2ccc(S(=O)(=O)NCCNc3nc(Nc4ccc(F)cc4)nc(N(C)C)n3)cc2)cc(OC)c1OC [24d]")
50.3
